# Test system: Plasmodium berghei
# experiment-notes: Luciferase/luciferin-expressing antifolate-resistant parasites were used to infect a culture of HepG2 cells that were pre-incubated with compounds. Infected hepatocytes emit light due to the luciferase reaction. Assay results are presented as the percent inhibition of light emission compared to control. […]
# Type: functional
# condition-context: sporozoite, read-out: LUCIFERASE INFECTION ASSAY - IC90
Entries annotated with measured IC90
endpoint-name: IC90

- molecule: "Cn1nnnc1Sc1nc(-c2ccccc2)nc2ccccc12"
  endpoint-name: "IC90"
  observed-measurement: "5.09 µM"
- molecule: "O=C1NC(=O)N2CSCC12 (stereo unspecified)"
  endpoint-name: "IC90"
  observed-measurement: "> 20.9 µM"
- molecule: "CN1/C(=C\\C(=O)COC(=O)/C=C/c2cn(-c3ccccc3)nc2-c2ccc(F)cc2)C(C)(C)c2ccccc21"
  endpoint-name: "IC90"
  observed-measurement: "> 10 µM"
- molecule: "OC1(c2ccc(OC(F)F)cc2)CN(c2ccc(Br)cc2)C2=[N+]1c1ccccc1CC2 (stereo unspecified)"
  endpoint-name: "IC90"
  observed-measurement: "> 10 µM"
- molecule: "COc1ccc(S(=O)(=O)N2CCCCC2)cc1NC(=O)c1nn(CC(C)C)c(=O)c2ccccc12"
  endpoint-name: "IC90"
  observed-measurement: "4.38 µM"
- molecule: "CCOc1ccc(C2(O)C(C)N3C(=[N+]2c2ccc(OC)cc2)CCc2ccccc23)cc1 (stereo unspecified)"
  endpoint-name: "IC90"
  observed-measurement: "> 10 µM"
- molecule: "CSC(SC)=C(C#N)S(=O)(=O)C(C)C"
  endpoint-name: "IC90"
  observed-measurement: "> 13.1 µM"
- molecule: "COC(=O)c1c(NC(=O)c2ccco2)c2cc(NC3CCN(C(C)C)CC3)cnc2n1CCC(C)C"
  endpoint-name: "IC90"
  observed-measurement: "> 6.66 µM"
- molecule: "CCC(C)NC(=O)c1c(NC(=O)c2cccc(OC)c2)nc2ccc(C)cn12 (stereo unspecified)"
  endpoint-name: "IC90"
  observed-measurement: "> 8.67 µM"
- molecule: "CC(=O)N1CCc2cc(S(=O)(=O)Nc3ccc(Cl)cc3)ccc21"
  endpoint-name: "IC90"
  observed-measurement: "> 9.41 µM"
- molecule: "CCN(CC(=O)Nc1ccccc1-c1ccccc1)Cc1nc(O)c2ccccc2n1"
  endpoint-name: "IC90"
  observed-measurement: "7.89 µM"
- molecule: "O=c1c(-c2ccc([N+](=O)[O-])cc2)c(-c2ccc(Cl)cc2)cc2[nH]c3ccccc3n12"
  endpoint-name: "IC90"
  observed-measurement: "> 10 µM"
- molecule: "Cc1c2cnn(C)c(=O)c2c(C)n1Cc1cccs1"
  endpoint-name: "IC90"
  observed-measurement: "> 12.1 µM"
- molecule: "COc1cc(Nc2nccc3nc(-c4ccc5c(c4)OCCO5)[nH]c23)cc(OC)c1OC"
  endpoint-name: "IC90"
  observed-measurement: "1.67 µM"
- molecule: "Cc1nn2c(nc(NCCCc3n[nH]c(N)c3C#N)c3ccccc32)c1Cl"
  endpoint-name: "IC90"
  observed-measurement: "> 10 µM"
- molecule: "CCCc1cc(-n2ccnc2)n2ncc(-c3ccccc3)c2n1"
  endpoint-name: "IC90"
  observed-measurement: "> 10.9 µM"
- molecule: "O=C(Nc1ccccc1SCc1ccsc1)C1CCCCC1"
  endpoint-name: "IC90"
  observed-measurement: "> 10 µM"
- molecule: "CCc1sc(C(=O)NNC(=O)CN2CCN(c3ccc([N+](=O)[O-])cc3)CC2)cc1C"
  endpoint-name: "IC90"
  observed-measurement: "> 10 µM"
- molecule: "Clc1ccc2c(Nc3ccc(N4CCOCC4)cc3)ccnc2c1"
  endpoint-name: "IC90"
  observed-measurement: "> 10 µM"
- molecule: "C(=N\\Nc1nc2ccccc2[nH]1)/c1sc(N2CCCCC2)nc1-c1cccs1"
  endpoint-name: "IC90"
  observed-measurement: "> 10 µM"
- molecule: "O=S(=O)(c1ccc(Cl)cc1)c1nc(/C=C/c2ccccc2)oc1NCc1ccco1"
  endpoint-name: "IC90"
  observed-measurement: "9.82 µM"
